Give measured normalized growth for each item. Keep answers brief.
assay: chemical genetic growth profiling, strain panel (AID 1159580);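 also: tested at 20 µM; growth read once vehicle control cultures reached saturation at 30 °C; 1 = growth at the plate median or of vehicle wells; lower values mean less growth of the strain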; details: S. cerevisiae deletion strains, growth OD, locus YGL253W, strain hxk2, active compounds read low
Hit rate of the full screen: of about 5,500 compounds, about 2,000 (36%) were called active. Inconclusive results (about 18%) are left out. This is one part of the list.
Give bare numbers.

See these solved cases before continuing.
[
  {
    "COMPOUND": "C=NC(C(=O)NC1C(=O)N2C1SC(C)(C)C2C(=O)O)c1ccccc1 (stereo unspecified)",
    "normalized growth": 1.01
  },
  {
    "COMPOUND": "O=c1cccc2n1CC1CC2CN2CCCC[C@@H]12 (stereo partly specified)",
    "normalized growth": 0.982
  },
  {
    "COMPOUND": "Oc1c(Cl)cc(Cl)c(Cl)c1Cc1c(O)c(Cl)cc(Cl)c1Cl",
    "normalized growth": 0.0537
  }
]

Parameters: items (list). Returns: normalized growth for each item.
1. Nc1nc(F)nc2c1ncn2[C@@H]1O[C@H](COP(=O)(O)O)[C@@H](O)[C@@H]1O
2. CCCNC(=O)NS(=O)(=O)c1ccc(Cl)cc1
3. COc1cc(C)c2c(=O)cc(-c3ccccc3)oc2c1

Result:
1: 0.998; 2: 1.01; 3: 0.909
